- ASSAY_PROCEDURE: Blood partitioning (blood to plasma ratio)
- Assay type: in vitro ADME
- TEST_CONDITIONS: fresh pooled whole blood, fresh mouse blood, 37° C., read-out: Mice blood to plasma ratio
ENDPOINT_LABEL: blood plasma ratio at 30 min

MOLECULE_SMILES	RESULT_NUMBER
COc1ccc2nc3cc(Cl)ccc3c(NCCOCCN(C)CCOCCNc3c4ccc(Cl)cc4nc4ccc(OC)cc34)c2c1	12.6

* * *

- ASSAY_PROCEDURE: Kinetic solubility across pH (PBS pH 7.4, FaSSGF pH 1.6, FaSSIF pH 6.5)
- Assay type: physicochemical
- TEST_CONDITIONS: kinetic from dmso stock, FaSSIF pH 6.5, 90 minutes shaking, read-out: FaSSIF pH 6.5 solubility
ENDPOINT_LABEL: solubility at 90 min

COMPOUND	RESULT
COc1ccc2nc3cc(Cl)ccc3c(NCCOCCN(C)CCOCCNc3c4ccc(Cl)cc4nc4ccc(OC)cc34)c2c1 [Dioxo-DQ-551]	62 µM

* * *

- ASSAY_PROCEDURE: Kinetic solubility across pH (PBS pH 7.4, FaSSGF pH 1.6, FaSSIF pH 6.5)
- Type: physicochemical
- TEST_CONDITIONS: fassgf or other biorelevant, kinetic from dmso stock, FaSSGF pH 1.6, 90 minutes shaking, read-out: FaSSGF pH 1.6 solubility

MOLECULE_SMILES	solubility at 90 min
COc1ccc2nc3cc(Cl)ccc3c(NCCOCCN(C)CCOCCNc3c4ccc(Cl)cc4nc4ccc(OC)cc34)c2c1	~200 µM

* * *

Measured IC50 accompanies every entry in the list below.
- System: A375 cells
- ASSAY_PROCEDURE: Cytotoxicity assay, cell proliferation (Alamar Blue)
- Assay type: cell-based
- TEST_CONDITIONS: Homo sapiens, A-375, 72 h, replicate N1, read-out: IC50 N1

COMPOUND	IC50
COc1ccc2nc3cc(Cl)ccc3c(NCCOCCN(C)CCOCCNc3c4ccc(Cl)cc4nc4ccc(OC)cc34)c2c1	440 nM
CCN(CC)CCCC(C)Nc1c2ccc(Cl)cc2nc2ccc(OC)cc12 (stereo not drawn)	1280 nM
COc1cccc2c1C(=O)c1c(O)c3c(c(O)c1C2=O)C[C@@](O)(C(=O)CO)C[C@@H]3O[C@H]1C[C@H](N)[C@H](O)[C@H](C)O1	20 nM

* * *

Measured pIC50 accompanies every entry in the list below.
- Tested on: MiaPaCa-2 cells
- ASSAY_PROCEDURE: Cytotoxicity assay, cell proliferation (Alamar Blue)
- Assay type: cell-based
- TEST_CONDITIONS: Homo sapiens, MIA PaCa-2, 72 h, replicate N2, read-out: IC50 N2
pIC50: −log10 of the molar value.

COMPOUND	pIC50
COc1cccc2c1C(=O)c1c(O)c3c(c(O)c1C2=O)C[C@@](O)(C(=O)CO)C[C@@H]3O[C@H]1C[C@H](N)[C@H](O)[C@H](C)O1	7.10
CCN(CC)CCCC(C)Nc1c2ccc(Cl)cc2nc2ccc(OC)cc12 (stereo not drawn)	5.63
COc1ccc2nc3cc(Cl)ccc3c(NCCOCCN(C)CCOCCNc3c4ccc(Cl)cc4nc4ccc(OC)cc34)c2c1	6.68
